# System: bioluminescent sensor strain Escherichia coli MT102 (pSB403)
# Method description: Biosensor assay: quorum sensing inhibition, bioluminescence of the sensor strain
# Type: cell-based
# Experimental parameters: 3oxo-C6-HSL 100 nM; bioluminescence after 4 hours at 30° C.
pIC50: −log10 of the molar value.
Assay endpoint: pIC50

## Task Under bioluminescent sensor strain Escherichia coli MT102 (pSB403): report pIC50 of CCn1nc(C)c(Br)c1C(=O)NNC(=O)c1ccc(Cl)s1 [Compound 73] .
## Result 4.30 to 6.00

Shifting focus to the molecule that follows.
## Task Report pIC50 from bioluminescent sensor strain Escherichia coli MT102 (pSB403) testing of CCn1nc(C)c(Br)c1C(=O)NNC(=O)c1ccc(Cl)s1 [Compound 67]
## Result < 4.00
